Numbers sourced from patent US20020111340A1.

Measurement record for histamine-3 receptor (Rattus norvegicus); quantity recorded: pKi.
Numbers only, as −log10 of the molar value.

Recorded pKi, per entry:
>>> value_measured("C[C@@H]1CC[C@@H](C)N1C(=O)c1ccc(-c2ccc(OCCCN3CCOCC3)cc2)cc1")
6.94
>>> value_measured("CC(C)NCCCOc1ccc(-c2ccc(C(=O)N3[C@H](C)CC[C@H]3C)cc2)cc1")
6.29
>>> value_measured("C[C@@H]1CCC[C@H](C)N1CCCOc1ccc(-c2ccc(C(=O)N3CCCC3)cc2)cc1")
8.14

For each of the compounds below, note its pKi.
1. CN(CCCOc1ccc(-c2ccc(C(=O)N3CCCC3)cc2)cc1)[C@@H]1CCN(Cc2ccccc2)C1
2. CCN(CC)CCCOc1ccc(-c2ccc(C(=O)N3[C@H](C)CC[C@H]3C)cc2)cc1
3. CC1CCN(C(=O)c2ccc(-c3ccc(OCCCN4[C@H](C)CC[C@H]4C)cc3)cc2)CC1
4. CC1CCN(CCCOc2ccc(-c3ccc(C(=O)N4[C@H](C)CC[C@H]4C)cc3)cc2)CC1

## Output
6.42
7.86
8.58
8.44
